# target.or.test.system: CETP activity in the serum (Homo sapiens, UniProt P11597)
# Construct: from tissue; host or cells: serum of transgenic hCETP mice
# Sequence (P11597 18-493): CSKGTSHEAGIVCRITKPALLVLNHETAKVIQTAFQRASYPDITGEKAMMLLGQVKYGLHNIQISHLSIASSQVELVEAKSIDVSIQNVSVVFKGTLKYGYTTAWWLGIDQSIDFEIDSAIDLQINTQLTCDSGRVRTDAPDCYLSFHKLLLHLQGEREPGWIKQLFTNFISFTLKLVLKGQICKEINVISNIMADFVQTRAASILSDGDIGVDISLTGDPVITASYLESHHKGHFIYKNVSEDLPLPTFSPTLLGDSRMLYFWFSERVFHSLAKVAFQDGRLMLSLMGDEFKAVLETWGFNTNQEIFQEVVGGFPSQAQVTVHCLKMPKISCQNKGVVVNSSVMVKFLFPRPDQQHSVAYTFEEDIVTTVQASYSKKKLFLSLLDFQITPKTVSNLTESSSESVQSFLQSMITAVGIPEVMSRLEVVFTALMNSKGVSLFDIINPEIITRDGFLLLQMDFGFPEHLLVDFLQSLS
# experiment.description: Measurement of the ex vivo activities on transgenic hCETP mice
# Assay type: in vivo
# assay.setup: mouse; 30 mg/kg oral, 3 h after administration, serum cholesteryl ester transport; read-out: % inhibition at 30 mg/kg 3 h
// false strictly below 50% in inhibition at 30 mg/kg; true otherwise

Example cases with answers are listed next.
{"compound": "CCc1c(C)c(Cl)c2c(c1OC(=O)C1(C)C3CCC1CC3)Oc1ccc([C@@H](O)CC(C)(C)C)c(OC)c1C(=O)OC2 (stereo partly drawn)", "group.label": "true"}
{"compound": "COc1c([C@@H](O)CC(C)(C)C)ccc2c1C(=O)OCc1c(Cl)c(C)c(Br)c(OC(=O)C3(C)C4CCC3CC4)c1O2 (stereo partly drawn)", "group.label": "true"}
{"compound": "COc1c([C@@H](O)CC(C)C)ccc2c1C(=O)OCc1c(Cl)c(C)c(C3CC3)c(OC(=O)C3(C)C4CCC3CC4)c1O2 (stereo partly drawn)", "group.label": "true"}

Request: Does inhibition at 30 mg/kg meet or surpass 50% for COc1c([C@@H](O)CC(C)C)ccc2c1C(=O)OCc1cc(C)c(C3CC3)c(OC(=O)C3(C)C4CCC3CC4)c1O2 (stereo partly drawn) ?
Result: false

Request: # bool: inhibition at 30 mg/kg of COCc1c(C)c(Cl)c2c(c1OC(=O)C1(C)C3CCC1CC3)Oc1ccc(C(O)CC(C)(C)C)c(OC)c1C(=O)OC2 (stereo not drawn) >= 50%
Result: false

----------
# target.or.test.system: CETP (Homo sapiens, UniProt P11597)
# Construct: enriched CETP fraction, obtained from human plasma by means of hydrophobic chromatography; from tissue; host or cells: human plasma
# experiment.description: CETP fluorescence test
# Format: biochemical
# assay.setup: CETP from human plasma, transfer of fluorescent cholesterol ester between liposomes, 37° C., 4 hours; read-out: IC50 [nM] Fluor. test
Categories are assigned from the measured IC50 using these intervals: group 1: < 60 nM; group 2: ≥ 60 nM and < 200 nM; group 3: ≥ 200 nM

These recorded examples may help you get a feel for the data.
{"compound": "COc1c([C@@H](O)CC(C)C)ccc2c1C(=O)OCc1cc(C)cc(OS(=O)(=O)C(C)C)c1O2", "target.or.test.system": "CETP (Homo sapiens, UniProt P11597)", "group.label": "group 3"}
{"compound": "COc1c([C@@H](O)CC(C)(C)C)ccc2c1C(=O)OCc1c(Cl)c(C)c(Br)c(OC(=O)C3(C)C4CCC3CC4)c1O2 (stereo partly drawn)", "target.or.test.system": "CETP (Homo sapiens, UniProt P11597)", "group.label": "group 1"}

Request: Please classify: COc1c([C@@H](O)CC(C)C)ccc2c1C(=O)OCc1cc(C)cc(OC(=O)C3(C)CC3(F)F)c1O2 (stereo partly drawn)
Result: group 3

Request: Place this compound in its band: `COc1c([C@@H](O)CC(C)C)ccc2c1C(=O)OCc1c(Br)c(C)c(Cl)c(OC(=O)[C@@]3(C)C[C@H]4CC[C@@H]3C4)c1O2`
Result: group 2

Request: Categorize the following entry: `COc1c([C@@H](O)CC(C)C)ccc2c1C(=O)OCc1cc(C)c(Cl)c(OC(=O)[C@@]3(C)C[C@H]4CC[C@@H]3C4)c1O2`
Result: group 2

Request: Which of the defined bands does the recorded IC50 of `COc1c([C@@H](O)CC(C)C)ccc2c1C(=O)OCc1cc(C)cc(OC(=O)CC(C)(C)C)c1O2` sit within?
Result: group 3

Request: Using the reported IC50, which band applies to COc1c([C@@H](O)CC(C)C)ccc2c1C(=O)OCc1c(Cl)c(C)c(C3CC3)c(OC(=O)C3(C)C4CCC3CC4)c1O2 (stereo partly drawn) ?
Result: group 1

Request: For this compound, which bin applies? COCc1c(C)c(Cl)c2c(c1OC(=O)C1(C)C3CCC1CC3)Oc1ccc(C(O)CC(C)(C)C)c(OC)c1C(=O)OC2 (stereo not drawn)
Result: group 1

Request: Each compound maps to one class by IC50. Which class for `CCc1c(C)cc2c(c1OC(=O)[C@@]1(C)C[C@H]3CC[C@@H]1C3)Oc1ccc([C@@H](O)CC(C)C)c(OC)c1C(=O)OC2` ?
Result: group 1

Request: State the band of `COc1c([C@@H](O)CC(C)C)ccc2c1C(=O)OCc1c(Cl)c(C)c(Cl)c(OC(=O)N3CC4CCC(C3)O4)c1O2`
Result: group 3

Request: Hi, small favor: classify `COc1c([C@@H](O)CC(C)C)ccc2c1C(=O)OCc1c(Cl)c(C)c(C)c(OC(=O)[C@@]3(C)C[C@H]4CC[C@@H]3C4)c1O2` by its IC50 when you get a moment.
Result: group 1

Request: Please indicate the class for `COc1c([C@@H](O)CC(C)C)ccc2c1C(=O)OCc1c(Cl)c(C)cc(OC(=O)C(C)(C)CF)c1O2` based on its IC50.
Result: group 3

Request: Would you mind sorting `COc1c([C@@H](O)CC(C)C)ccc2c1C(=O)OCc1c(Cl)c(C)c(Br)c(OC(=O)C3(C)CCCCC3)c1O2` into the appropriate category?
Result: group 2

Request: Record `COc1c([C@@H](O)CC(C)C)ccc2c1C(=O)OCc1c(C#N)c(C)cc(OCCC(C)C)c1O2` — which class?
Result: group 3

Request: State the class of the compound shown: `COc1c([C@@H](O)CC(C)C)ccc2c1C(=O)OCc1c(Cl)c(C)c(Cl)c(OC(=O)C3(C)CCCCC3)c1O2`
Result: group 2

Request: Band assignment needed for COc1c(C(O)CC(C)C)ccc2c1C(=O)OCc1c(F)c(C)c(C)c(OC(=O)C3(C)C4CCC3CC4)c1O2 (stereo not drawn) please.
Result: group 1

Request: // return the class label for COc1c([C@@H](O)CC(C)(C)C)ccc2c1C(=O)OCc1c(Cl)c(C)c(C)c(OC(=O)C3(C)C4CCC3CC4)c1O2 (stereo partly drawn)
Result: group 1

Request: Exam item: assign COc1c([C@@H](O)CC(C)C)ccc2c1C(=O)OCc1cc(C)cc(OCC3CC4C=CC3C4)c1O2 (stereo partly drawn) to the correct category.
Result: group 3

Request: Kindly state the category for this compound: COc1c(C(O)CC(C)C)ccc2c1C(=O)OCc1cc(C)cc(CCC3CCCC3)c1O2 (stereo not drawn)
Result: group 3

Taken from patent US20060247303A1.
